Test: Human HepG2 cell viability assay in 384 well format
Assay type: toxicity, cell-based
Parameters: dose 125 nL, time 70.5 hour; concentration not given beside the values
Conditions: HepG2 cells, read-out: Inhibition
observable: cytotoxicity at 70.5 h (%)
// note: answer is a bare numeric in %

Look up cytotoxicity at 70.5 h: NC(=O)C1CN(c2ccc3cc(Br)ccc3n2)CCO1 (stereo unspecified) -109

Entry to check: CC(C(=O)Nc1ncccn1)N1CCc2[nH]nc(C(F)(F)F)c2C1 (stereo unspecified) -6.74

Entry to check: CCN1CC(C(=O)N2CCN(CCn3cccc3)CC2)CCC1=O (stereo unspecified) 1.29

Entry to check: Cn1cc(C(O)CNC(=O)c2ccc(F)cc2Cl)cn1 (stereo unspecified) -13

Entry to check: Cc1cnc(N)c(C(=O)C2CCN(C(=O)c3cnc(C)nc3C)CC2)c1 -6.36

Entry to check: Cc1ccc(S(=O)(=O)c2ncccc2CN2CCCCC2)cc1 -21

Entry to check: O=C(O)CCc1ccc(S(=O)(=O)Nc2cnn(CC(F)(F)F)c2)cc1 -5.48

Entry to check: O=C(O)CSc1nc(-c2ccc3c(c2)CCC3)n[nH]1 2.18

Entry to check: Cn1cc(C(=O)N2C[C@@H]3COC[C@]3(COCc3cccnc3)C2)cn1 -12.3

Entry to check: Cc1c(CN2CCCC(C(=O)Nc3ccccc3)C2)cc(C#N)n1C (stereo unspecified) -2.58

Entry to check: CCN(CC)c1ncccc1CNCc1cc2ccccc2s1 -2.63
